# reported red/green cell ratio (normalised); entries follow
assay: differential killing of epithelial or mesenchymal cells, primary screen, imaging, PC-3E GFP, TEM4-18 mCherry, co-culture (AID 1345086); details: imaging cell counts, at 1 µM, actives lie on both sides;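 further: normalised mesenchymal count divided by normalised epithelial count so high means epithelial killing; cells exposed to compound for 72 h before imaging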
Active and inactive are the calls of the source.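 How the source made its calls: active means compounds killing one labelled cell type while sparing the other, by normalised counts and ratio limits, not self-fluorescent; inactive means the rest.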

MOLECULE: Oc1c(Cl)c(Cl)c(Cl)c(Cl)c1Cl
RESULT: 0.88 (inactive)
//
MOLECULE: CC[N+]1(C)CCCC(OC(=O)C(O)(c2ccccc2)c2ccccc2)C1 (stereo not given)
RESULT: 0.98 (inactive)
//
MOLECULE: CC(C)CCCC1(C)C=Cc2c(O)c3c(c(CCC(C)C)c2O1)OC12C(CC4CC1C(C)(C)OC2(CCC(C)C(=O)O)C4O)C3=O (stereo not given)
RESULT: 0.9 (inactive)
//
MOLECULE: O=C(NC(=O)c1c(F)cccc1F)Nc1ccc(Cl)cc1
RESULT: 1 (inactive)
//
MOLECULE: O=c1oc2ccccc2c(O)c1Cc1c(O)c2ccccc2oc1=O
RESULT: 0.99 (inactive)
//
MOLECULE: CC(=O)O[C@H]1C(=O)[C@@]2(C)C([C@H](OC(=O)c3ccccc3)[C@]3(O)C[C@H](O)C(C)=C1C3(C)C)[C@]1(OC(C)=O)CO[C@@H]1C[C@@H]2O (stereo not given in full)
RESULT: 0.91 (inactive)
//
MOLECULE: O=C1C=C2C=C[C@@H]3C[C@@]2(O1)[C@H]1CCCCN31
RESULT: 0.9 (inactive)
//
MOLECULE: COc1ccc2c3c([nH]c2c1)C(C)=NCC3
RESULT: 0.92 (inactive)

For the molecule [N-]=[N+]=CC(=O)OCC(N)C(=O)O (stereo not given) , give its reported red/green cell ratio (normalised).
1.35 (inactive)

For the molecule CC(=O)O[C@H]1C[C@@H](OC(C)=O)C(C)(C)C2C[C@@H](OC(C)=O)[C@]3(C)C(CC[C@@]4(C)[C@H](c5ccoc5)C(=O)[C@H]5O[C@]543)[C@]21C (stereo not given in full) , report red/green cell ratio (normalised).
1.03 (inactive)

Supply recorded red/green cell ratio (normalised) for `COc1ccc2c(c1)[nH]c1c(C)nccc12` here.
0.67 (inactive)

Fill in red/green cell ratio (normalised) for record `N#Cc1c(Cl)c(Cl)c(Cl)c(C#N)c1Cl`
0.93 (inactive)

For COc1cc2c(cc1O)CC1c3c(cc(O)c(OC)c3-2)CCN1C (stereo not given) , write its red/green cell ratio (normalised).
0.97 (inactive)

Note red/green cell ratio (normalised) for the molecule shown: `COc1cc2ccc(=O)oc2c2ccoc12`
1.01 (inactive)

Specify reported red/green cell ratio (normalised) for the molecule shown: CNc1ccc(C(=O)CC(O)CCC(C)C2OC(=O)CC(O)CC(=O)CC(O)CC(O)CC(O)CC(O)CC3(O)CC(O)C(C(=O)OC)C(CC(O[C@@H]4O[C@H](C)[C@@H](O)[C@H](N)[C@@H]4O)/C=C/C=C/C=C/C=C/C=C/C=C/C=C/C2C)O3)cc1 (stereo not given in full)
1.39 (inactive)

----------
experiment: sensitizers of A549 cells to miR-34 induction, primary screen, imaging, A549 dox-inducible miR-34, nuclei and caspase counts (AID 1347080); details: A549 miR-34 inducible, Hoechst nuclei count, 48 h; measured here: total cells without miR-34 induction
Rule for this label: criterion met means cell count is less than 9000; criterion not met means cell count is at least 9000.

COMPOUND: CCCC(C)C1(CC)C(=O)N=C(S)NC1=O (stereo not given)
DISCRETE_LABEL: criterion not met

Consider the compound `COC(=O)CN1CN(c2ccccc2)C2(CCN(Cc3ccc4ccccc4c3)CC2)C1=O` . Is its cell count strictly less than 9000?
criterion not met

Quick check: does C=CC[C@]1(O)CCC2C3CCC4=CC(=O)CCC4=C3C=C[C@@]21C (stereo not given in full) have cell count under 9000?
criterion not met
